Biological target: T1, CGH-1_(248–420) E396A (C. elegans, UniProt Q95YF3 248-420, E396A)
T1 construct: Mutant of m1 made with the MutanBEST kit; source: E. coli Gold (DE3), purified (Ni-chelating resin, SEC Superdex 75)
T1 sequence (looked up): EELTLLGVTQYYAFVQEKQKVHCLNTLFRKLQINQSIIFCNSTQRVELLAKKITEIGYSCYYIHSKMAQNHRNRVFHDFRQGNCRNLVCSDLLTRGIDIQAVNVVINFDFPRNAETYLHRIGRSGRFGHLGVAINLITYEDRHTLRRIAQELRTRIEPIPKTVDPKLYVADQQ
Experiment: ITC; ligand (peptide or CAR-1 fragment, 0.5 mM) injected into CGH-1_(248-420) or mutant (0.05 mM) in the cell; 20 °C; Buffer B (20 mM Tris-HCl pH 7.5, 150 mM NaCl); one-binding-site model
Conditions: both partners purified
measurement.type: pKd
Numbers only, as −log10 of the molar value.

Query string: Bench note: what pKd did LADPIDFDLDSDFDFAENLKLFEKDENDDQYYETVEK (Enhancer of decapping-3 (EDC-3, also called LSm16), C. elegans, FDF fragment, residues 235-271; Printed with free NH2 and COOH ends; also called EDC-3 peptide; EDC-3 FDF-FEK peptide; source: synthetic peptide (GL Biochem, Shanghai)) [EDC-3 FDF peptide (EDC-3_(235–271))] show?
Result string: 6.07

Data origin: paper PMC8514580
